Tested on: HOP-92 NSCLC
ASSAY METHOD TEXT: NCI-60 one-dose screen, 48 h (100 = growth as untreated, 0 = no growth, -100 = all killed)
MEASUREMENT PARAMETERS: 10 µM
This is part of a sample that, as a whole, favours compounds with a hit. Of some 83,000 tested, about 20% had one in any assay.
Mark No for growth values under 90%, and Yes for everything at or above.

* c1ccc2c(c1)Cc1ccccc1N2CCN1CCCCC1 | No
* O=C1NC(=O)c2c(CCCSc3nc4ccccc4c(=O)n3CCc3ccccc3)cccc21 | Yes
* COc1cc(C(=O)/C(C)=C/c2c[nH]c3ccccc23)cc(OC)c1OC | No
* COc1ccc(C2CC(c3cccs3)=NN2c2ccc(S(N)(=O)=O)cc2)cc1 (stereo not given) | No

###

Examples of molecules with documented growth follow.
Tested on: U251 CNS
ASSAY METHOD TEXT: NCI-60 one-dose screen, 48 h (100 = growth as untreated, 0 = no growth, -100 = all killed)
MEASUREMENT PARAMETERS: 10 µM
This is part of a sample that, as a whole, favours compounds with a hit. Of some 83,000 tested, about 20% had one in any assay.
PROPERTY NAME: growth (%)

* CC(=O)C1CCC2C3CC=C4CC(SC(=N)N)CCC4(C)C3CCC12C (stereo not given) | 30.5
* O=c1[nH]c(=O)n(C2C[C@H](O)[C@@H](CO)O2)cc1C(F)(F)F (stereo not given in full) | 102
* S=C(SSC(=S)N(c1ccccc1)c1ccccc1)N(c1ccccc1)c1ccccc1 | 87.9
* CC(C)=CCC/C(C)=C/CC/C(C)=C/CC/C=C(\C)CC/C=C(\C)CCC(=O)Nc1ccn(C2OC(CO)C(O)C2(F)F)c(=O)n1 (stereo not given) | 20.5
* COc1ccc(N=Nc2cc(OC)c(OC)c(OC)c2)cc1 | 79.5

###

Tested on: UACC-257 melanoma
ASSAY METHOD TEXT: NCI-60 one-dose screen, 48 h
MEASUREMENT PARAMETERS: 10 µM
The panel holds about 83,000 compounds, 20% with a hit somewhere; the sample as a whole holds those more often. Activity calls are given as the source filed them. The calls were made as follows: active = growth percent below 10; inactive = the rest.
Labels: class 1 (active), class 0 (inactive)

• COc1ccc(Cl)cc1Nc1nc(C(F)(F)F)ccc1C(=O)N/N=C/c1cc(OC)c(OC)c(OC)c1 = class 0
• Cc1[nH]c2ccccc2c1/C=N/Nc1ncnc2sc3c(c12)CCN(CC(=O)OC(C)(C)C)C3 = class 0
• CCCCN(CCCC)C(=O)[C@H](CC)[C@@H]1CC[C@@H](C)[C@@H]([C@H](C)[C@@H](O)[C@@H](C)C(=O)[C@H](CC)C2O[C@]3(C=CC(=O)[C@]4(CC[C@@](C)([C@H]5CC[C@](O)(CC)[C@H](C)O5)O4)O3)[C@H](C)C[C@@H]2C)O1 (some centres not stated) = class 0
• CC[C@@H](C(=O)[C@@H](C)[C@@H](O)[C@H](C)[C@@H]1O[C@@H]([C@@H](CC)C(=O)O)CC[C@@H]1C)C1O[C@]2(C=CC(=O)[C@]3(CC[C@@](C)([C@H]4CC[C@](O)(CC)[C@H](C)O4)O3)O2)[C@H](C)C[C@@H]1C (some centres not stated) = class 0
• O=C(Nc1ccc(NS(=O)(=O)c2ccc(F)cc2)cc1)C12CC3CC(CC(C3)C1)C2 = class 0
• CC1=NN(C(=O)c2nn(-c3ccc(Cl)cc3)cc2O)C(=O)C1 = class 0
• COc1ccc(N(C)c2ncnc3occ(C)c23)cc1 = class 0
• COc1ccc(-c2cc(-c3ccc(Cl)cc3)nc(SCCCC(=O)NO)n2)cc1OC = class 0
• COc1cc2c(Nc3ccc(-c4ccc(N)cc4)cc3)ncnc2c(OC)c1OC = class 0
• COc1ccc2cc(-c3nc4ccccc4s3)c(Cl)nc2c1OC = class 0
• COC(=O)CC[C@@H](C)[C@H]1CC[C@H]2[C@@H]3CC[C@@H]4C[C@H](O)CC[C@]4(C)[C@H]3C[C@H](O)[C@]12C = class 0
• Clc1nc2ccc(Br)cc2cc1-c1nc2ccccc2[nH]1 = class 0
• O=C(/C=C/c1cccc(B(O)O)c1)c1cccc(B(O)O)c1 = class 1
• OCC1OC2C(NC(=S)N2c2ccccc2)C(O)C1O (configuration not stated) = class 0
• Cc1cn(-c2cc(F)cc(NC(=O)c3ccc(C)c(Nc4nccc(-c5cccnc5)n4)c3)c2)cn1 = class 0
• Clc1ccc2c(c1)C(N1CCNCC1)=Nc1ccccc1O2 = class 1
• CC(C)(C)c1nn(-c2ccccc2)c2c1CC1(CN2Cc2ccc(Cl)cc2)C(=O)c2ccccc2C1=O = class 0
